Test system: Kochia (Kochia scoparia)
Experiment: Test A preemergence
Type: in vivo
Details: Bassia scoparia, pre-emergence, 240 h, 500 g ai/ha, preemergence; 0 to 100 scale (0 no effect, 100 complete control); read-out: Plant response rating, Kochia
Description: […]
observable: pest or weed control at 500 g/ha
Please answer using a numeric value trailed by its unit.

**Query** Please list pest or weed control at 500 g/ha recorded for the compound O=C1NC[C@H](c2cnc(C(F)(F)F)nc2)[C@H]1C(=O)Nc1cccc(F)c1F [Compound 1382]
**Result** 60%

***
**Query** Please list pest or weed control at 500 g/ha recorded for the compound Cc1c(F)ccc([C@H]2CNC(=O)[C@@H]2C(=O)Nc2ccc(F)cc2F)c1F [Compound 1328]
**Result** 50%

**Query** Please list pest or weed control at 500 g/ha recorded for the compound CN1C[C@H](c2ccc(OC(F)F)cc2)[C@@H](C(=O)Nc2ccccc2F)C1=O [Compound 1371]
**Result** 90%

Each recorded value in this set is attributed to patent US12077503B2.
